Assay: chemical genetic growth profiling, strain panel (AID 1159580);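 also: tested at 20 µM; growth read once vehicle control cultures reached saturation at 30 °C; 1 = growth at the plate median or of vehicle wells; lower values mean less growth of the strain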
Settings: S. cerevisiae deletion strains, growth OD, locus YOR290C, strain snf2, hits give low values
Among all 5,500 compounds or so, about 2,000 (36%) were called active. Not shown: some 18% with an inconclusive outcome. Some of the results follow.
VALUE KIND: normalized growth
Just the number, please, no unit after it.

In the examples that follow, each entry is paired with its recorded normalized growth.
> print(dat)
                                   molecule         value.kind    val
1  COc1ccc(-c2cc(=O)c3c(O)cc(O[C@@H]4O[C@H](CO[C@H]5O[C@H](C)[C@@H](O)[C@H](O)[C@@H]5O)[C@@H](O)[C@H](O)[C@H]4O)cc3o2)cc1O  normalized growth   1.02
2  COc1ccc(-c2oc3cc(O[C@H]4O[C@H](CO)[C@@H](O)[C@H](O)[C@H]4O)c(OC)c(O)c3c(=O)c2OC)cc1O  normalized growth  0.984
3  O=c1c(O)c(-c2ccc(O)cc2O)oc2cc(O)cc(O)c12  normalized growth  0.976

Consider the molecule "CCc1cc(C(N)=S)ccn1" . State its measured normalized growth. 1.01

Consider the molecule "O=c1c(O)c(-c2ccc(O)c(O)c2)oc2c(O[C@@H]3O[C@H](CO)[C@H](O)[C@@H](O)[C@H]3O)c(O)cc(O)c12" . State its measured normalized growth. 1.03

Consider the molecule O=C(Cc1cccs1)NC1C(=O)N2C(C(=O)[O-])=C(C[n+]3ccccc3)CSC12 (stereo not drawn) . State its measured normalized growth. 0.991

Consider the molecule CC1O[C@@H](Oc2c(-c3ccc(O)c(O)c3)oc3cc(O)cc(O)c3c2=O)[C@H](O)[C@H](O)[C@H]1O (stereo partly drawn) . State its measured normalized growth. 0.995

Consider the molecule "O=C(O)C1=C[C@@H](O)[C@@H](O)[C@H](O)C1" . State its measured normalized growth. 0.988

###

Test: chemical genetic growth profiling, strain panel (AID 1159580)
Details: S. cerevisiae deletion strains, growth OD, locus YLR320W, strain mms22, hits give low values
Hit rate of the full screen: of about 5,500 compounds, about 2,000 (36%) were called active. Another 18% or so got no clear call; they are omitted. This is one part of the list.
Mark MET for normalized growth under 1, NOT MET if at or over.

MOLECULE	ASSIGNED CATEGORY
O=C1[O][Bi][O]c2ccccc21	NOT MET
CC(C)N(CCC(C(N)=O)(c1ccccc1)c1ccccn1)C(C)C (stereo unspecified)	MET

Problem: For the molecule O=c1ccc2cc(OC3OC(CO)C(O)C(O)C3O)c(O)cc2o1 (stereo unspecified) , is normalized growth under 1? NOT MET

Problem: For the molecule "C=C(C)[C@H]1COc2cc3oc(=O)ccc3cc2O1" , is normalized growth under 1? MET

Problem: For the molecule "NC(=NCCC[C@H](N)C(=O)O)N[N+](=O)[O-]" , is normalized growth under 1? NOT MET

Problem: For the molecule CCC(c1ccc(O)cc1)C(CC)c1ccc(O)cc1 (stereo unspecified) , is normalized growth under 1? MET

Problem: For the molecule "COc1cc(OC)c2c(=O)c(O)c(-c3ccc(OC)c(OC)c3)oc2c1" , is normalized growth under 1? MET

Problem: For the molecule CC(=O)O[C@@H]1CC2C(C)(C)C(=O)C=C[C@]2(C)C2CC[C@@]3(C)[C@H](c4ccoc4)OC(=O)[C@H]4O[C@]43[C@@]21C (stereo partly specified) , is normalized growth under 1? MET

Problem: For the molecule "COc1cccc2c(C)cc(=O)[nH]c12" , is normalized growth under 1? MET

###

Experiment: chemical genetic growth profiling, strain panel (AID 1159580)
Details: S. cerevisiae deletion strains, growth OD, locus YKL085W, strain MDH1, hits give low values
Screen size: about 5,500 compounds; about 2,000 (36%) were called active. Roughly 18% stayed inconclusive and do not appear here. The list shows a part of the results.
Readings of normalized growth for the listed molecules
Just the number, please, no unit after it.

In the examples that follow, each entry is paired with its recorded normalized growth.
> print(dat)
                                   molecule    val
1  CC1(C)C(=O)C=C[C@@]2(C)C1C=C[C@]1(C)C2CC[C@@]2(C)[C@H](c3ccoc3)OC(=O)C3OC321 (some centres not stated)  0.985
2  COc1ccc2c(c1)CCC1C2CCC2(C)C1C[C@@H](O)C2O (some centres not stated)  0.997
3  Cc1cc(OC(=O)c2c(C)cc(O)cc2O)cc(O)c1C(=O)O      1

Consider the molecule Cc1ccccc1OCC(O)CO (configuration not stated) . State its measured normalized growth. 1.04

Consider the molecule CC12CCC3c4ccc(OCc5ccccc5)cc4CCC3C1C[C@@H](O)[C@@H]2O (some centres not stated) . State its measured normalized growth. 0.068

Consider the molecule "COc1cc2occc2c2oc(=O)ccc12" . State its measured normalized growth. 0.991

Consider the molecule "CCOC(=O)c1c(C)cc(O)cc1O" . State its measured normalized growth. 0.912

Consider the molecule C[C@]12CCC3c4ccc(O)cc4CCC3C1C[C@@H](O)[C@@H]2O (some centres not stated) . State its measured normalized growth. 1.01

###

Assay: chemical genetic growth profiling, strain panel (AID 1159580)
Settings: S. cerevisiae deletion strains, growth OD, locus YGL173C, strain kem1
Among all 5,500 compounds or so, about 2,000 (36%) were called active. Inconclusive results (about 18%) are left out. Cut-off read from the data, not from the text of the source: active = normalized growth mostly below about 0.91 (no sharp cut-off); inconclusive = no clear call, values can overlap the other calls; inactive = mostly above about 0.92. The list shows a part of the results.
Entry note: the call must match one of active, inactive

How was "O=c1c(O)c(-c2ccc(O)c(O)c2)oc2c(O[C@@H]3O[C@H](CO)[C@H](O)[C@@H](O)[C@H]3O)c(O)cc(O)c12" classified in this test? inactive

How was "NC(N)=NC(=O)c1nc(Cl)c(N)nc1N" classified in this test? inactive

###

Assay: chemical genetic growth profiling, strain panel (AID 1159580);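 also: tested at 20 µM; growth read once vehicle control cultures reached saturation at 30 °C; 1 = growth at the plate median or of vehicle wells; lower values mean less growth of the strain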
Details: S. cerevisiae deletion strains, growth OD, locus YKR091W, strain srl3, hits give low values
Out of some 5,500 compounds screened, about 2,000 (36%) were called active. Roughly 18% stayed inconclusive and do not appear here. Some of the results follow.
Mark Y for normalized growth under 1, N if at or over.

Would you please look over these solved cases?
COMPOUND	ASSIGNED CATEGORY
CCOC(=O)c1c(C)cc(O)cc1O	Y
COc1ccc2c(c1)CCC1C2CC[C@@]2(C)C1CC[C@@H]2O (some centres undefined)	Y
O=C(O[C@@H]1Cc2c(O)cc(O)cc2O[C@@H]1c1cc(O)c(=O)c2c(O)c(O)cc([C@H]3Oc4cc(O)cc(O)c4C[C@H]3OC(=O)c3cc(O)c(O)c(O)c3)c2c1)c1cc(O)c(O)c(O)c1	Y
O=C1[O][Bi][O]c2ccccc21	N

Now look at this one.
Problem: For the compound "Cc1cc(C2CCCCC2)n(O)c(=O)c1" , is normalized growth under 1? Y

###

Assay: chemical genetic growth profiling, strain panel (AID 1159580);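 also: tested at 20 µM; growth read once vehicle control cultures reached saturation at 30 °C; 1 = growth at the plate median or of vehicle wells; lower values mean less growth of the strain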
Details: S. cerevisiae deletion strains, growth OD, locus YNL307C, strain MCK1 (second series)
The campaign covered roughly 5,500 compounds. About 2,000 (36%) were called active. About 18% were inconclusive and are not listed. No stated cut-off is given here; in the data, active means normalized growth mostly below about 0.91 (no sharp cut-off); inconclusive means no clear call, values can overlap the other calls; inactive means mostly above about 0.92. This is one part of the list.
Entry note: the call must match one of active, inactive

> print(dat)
                                   compound  assigned.category
1  CC(C)(C)C(=O)NC(=S)N/N=C\c1cc(Cl)cc(Cl)c1O             active
2             CC(C)(C)NC(=S)N/N=C\c1ccccc1O           inactive
3  CC(NC(=S)N/N=C\c1ccccc1O)c1ccccc1 (configuration not stated)           inactive

How was "FC(F)(F)c1cccc(NC(=S)NN=C2CCCCCC2)c1" classified in this test? inactive

How was "CCCCNC(=S)N/N=C\c1cc(Cl)cc(Cl)c1O" classified in this test? active

###

Test: chemical genetic growth profiling, strain panel (AID 1159580);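 also: tested at 20 µM; growth read once vehicle control cultures reached saturation at 30 °C; 1 = growth at the plate median or of vehicle wells; lower values mean less growth of the strain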
Settings: S. cerevisiae deletion strains, growth OD, locus YDR392W, strain spt3, hits give low values
Among all 5,500 compounds or so, about 2,000 (36%) were called active. Another 18% or so got no clear call; they are omitted. The list shows a part of the results.
VALUE KIND: normalized growth

In the examples that follow, each entry is paired with its recorded normalized growth.
MOLECULE	VAL
NC(N)=NC(=O)c1nc(Cl)c(N)nc1N	0.988 (inactive)
O=C(Cc1cccs1)NC1C(=O)N2C(C(=O)[O-])=C(C[n+]3ccccc3)CSC12 (centres undefined)	0.994 (inactive)
O=c1cc(-c2ccc(O)cc2)oc2cc(O[C@@H]3O[C@H](CO)[C@@H](O)[C@H](O)[C@H]3O)cc(O)c12	0.935 (inactive)
CC(CC(O)C1OC1(C)C)[C@@H]1CCC2(C)C3=CCC4C(C)(C)C(=O)CCC4(C)C3CC[C@@]12C (some centres undefined)	1.02 (inactive)
CCC(c1ccc(O)cc1)C(CC)c1ccc(O)cc1 (centres undefined)	0.743 (inactive)
C[C@@H]([C@H](O)c1ccccc1)N(C)C	1.03 (inactive)

Consider the molecule C[C@@H]1O[C@@H](OC[C@H]2OC(Oc3c(-c4ccc(O)c(O)c4)oc4cc(O)cc(O)c4c3=O)[C@H](O)[C@@H](O)[C@@H]2O)[C@H](O)[C@H](O)[C@H]1O (some centres undefined) . State its measured normalized growth. 0.979 (inactive)

Consider the molecule "NC(=O)c1ncn([C@@H]2O[C@H](CO)[C@@H](O)[C@H]2O)n1" . State its measured normalized growth. 0.995 (inactive)

Consider the molecule CC(C1OC(C)(C)C(O)C1O)[C@@H]1CC[C@]2(C)C3=CCC4C(C)(C)C(=O)CC[C@]4(C)C3CC[C@@]12C (some centres undefined) . State its measured normalized growth. 0.838 (inactive)

Consider the molecule OCC(O)C(O)C(O)C(O)C(O)CO (centres undefined) . State its measured normalized growth. 0.99 (inactive)

Consider the molecule COC(=O)[C@]1(C)CCC[C@]2(C)c3ccc(C(C)C)cc3C(=O)CC12 (some centres undefined) . State its measured normalized growth. 0.732 (active)

Consider the molecule CNC(C)C(O)c1ccccc1 (centres undefined) . State its measured normalized growth. 1 (inactive)

Consider the molecule "COc1ccc(-c2cc(=O)c3c(O)cc(O[C@@H]4O[C@H](CO[C@H]5O[C@H](C)[C@@H](O)[C@H](O)[C@@H]5O)[C@@H](O)[C@H](O)[C@H]4O)cc3o2)cc1O" . State its measured normalized growth. 0.987 (inactive)

Consider the molecule C[C@]12CCC3c4ccc(O)cc4CCC3C1CC[C@@H]2O (some centres undefined) . State its measured normalized growth. 0.639 (active)
